- Tested on: Alopecurus myosuroides (ALOMY)
- test.method.notes: Post-emergence biological efficacy, glasshouse pot test
- Format: in vivo
- conditions: 312 h, post-emergence, 1,000 g/ha, evaluated after 13 days (100=total damage; 0=no damage), read-out: Percentage damage caused to weed species, ALOMY
Decide using pest or weed control at 1000 g/ha alone. Strictly below 30%: true. Equal to or above 30%: false.

Lab note: confirm whether the reported pest or weed control at 1000 g/ha for this compound is below 30%, equality not counting. compound: COC(=O)c1nc(C2CC2)nc(NCc2ccc(N(C)C)cc2)c1Cl [Compound 4-87]
false

Let us now turn to COC(=O)c1nc(C2CC2)nc(NC2(/C=C/c3ccc(C)cc3)CC2)c1Cl [Compound 4-25]
false

Let us now turn to CCCCCc1ccc(C(C)Nc2nc(C3CC3)nc(C(=O)OC)c2Cl)cc1 (stereo not drawn) [Compound 4-178]
true

Let us now turn to COC(=O)c1nc(C2CC2)nc(N[C@@H](Cc2ccc(O)cc2)C(=O)OC)c1Cl [4-287 (S)]
true

Let us now turn to COC(=O)c1nc(C2CC2)nc(NC(C)c2ccc(F)cc2)c1Cl (stereo not drawn) [Compound 4-175]
true

Let us now turn to COC(=O)c1nc(C2CC2)nc(NC2(c3cccc(C)n3)CC2)c1Cl [Compound 4-13]
true

Let us now turn to COC(=O)c1nc(C2CC2)nc(NCCc2ccccn2)c1Cl [Compound 4-228]
true

Let us now turn to COC(=O)c1nc(C2CC2)nc(NCc2ccc(C(F)(F)F)cc2)c1Cl [Compound 4-77]
true

Let us now turn to C=CCC(Nc1nc(C2CC2)nc(C(=O)OC)c1Cl)c1ccc(Cl)cc1 (stereo not drawn) [Compound 4-198]
true

Let us now turn to COC(=O)c1nc(C2CC2)nc(NCC(F)c2cccc(C(F)(F)F)c2)c1Cl (stereo not drawn) [Compound 4-237]
true
